FYI, the data here is from patent US10004732B2.

biological target: PI 3-kinase gamma (Homo sapiens); experiment: TR-FRET Adapta assay, assay E; assay type: biochemical; settings: read-out: Assay E PI3Kγ IC50
Sequence (P48736 whole entry): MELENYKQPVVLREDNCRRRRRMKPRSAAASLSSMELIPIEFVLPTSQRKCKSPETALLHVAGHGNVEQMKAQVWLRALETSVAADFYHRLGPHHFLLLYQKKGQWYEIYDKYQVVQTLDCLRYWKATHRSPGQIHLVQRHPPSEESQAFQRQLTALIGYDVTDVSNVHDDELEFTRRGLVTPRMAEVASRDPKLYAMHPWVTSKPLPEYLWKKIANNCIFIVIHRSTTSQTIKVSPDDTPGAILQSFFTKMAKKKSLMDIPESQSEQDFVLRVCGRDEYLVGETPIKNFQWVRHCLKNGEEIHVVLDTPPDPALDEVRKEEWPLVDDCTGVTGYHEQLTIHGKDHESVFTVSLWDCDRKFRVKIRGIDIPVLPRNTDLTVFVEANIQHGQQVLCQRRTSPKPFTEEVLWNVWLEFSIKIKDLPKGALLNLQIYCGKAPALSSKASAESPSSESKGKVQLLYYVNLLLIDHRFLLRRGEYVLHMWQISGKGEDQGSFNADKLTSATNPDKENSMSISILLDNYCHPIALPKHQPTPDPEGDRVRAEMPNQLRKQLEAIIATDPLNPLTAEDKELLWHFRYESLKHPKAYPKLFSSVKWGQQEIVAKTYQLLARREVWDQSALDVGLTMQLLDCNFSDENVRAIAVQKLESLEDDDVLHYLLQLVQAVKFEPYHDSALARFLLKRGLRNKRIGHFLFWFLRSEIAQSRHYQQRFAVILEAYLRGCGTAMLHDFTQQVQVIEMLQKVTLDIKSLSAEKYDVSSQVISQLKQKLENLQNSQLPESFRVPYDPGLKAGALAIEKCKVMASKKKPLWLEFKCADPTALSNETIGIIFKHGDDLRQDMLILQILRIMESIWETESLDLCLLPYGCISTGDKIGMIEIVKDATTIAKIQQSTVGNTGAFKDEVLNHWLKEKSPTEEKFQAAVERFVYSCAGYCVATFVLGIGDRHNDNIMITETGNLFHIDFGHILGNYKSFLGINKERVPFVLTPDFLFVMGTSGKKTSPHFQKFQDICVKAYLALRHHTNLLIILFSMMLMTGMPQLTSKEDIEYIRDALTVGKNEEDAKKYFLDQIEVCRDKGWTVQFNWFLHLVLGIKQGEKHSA
Structures can show the parent of a compound that is named as a salt.
parameter-measured: log10(IC50) (log10 of the value in nM)
Reminder: these figures are log10 of reported IC50, in nM before transformation.

Known log10(IC50) results, listed for orientation:
| molecule | log10(IC50) |
| --- | --- |
| CCOc1ccc(-c2nc(-c3cc(S(=O)(=O)NCCC(C)(C)O)ccc3C)cnc2N)cn1 [Example 119.13] | 1.99 |
| Cc1ccc(S(=O)(=O)NCC2(CO)COC2)cc1-c1cnc(N)c(-n2cncn2)n1 [Example 35] | 1.40 |
| Cc1ccc(S(=O)(=O)NC[C@@H]2CCC(C)(C)O2)cc1-c1cnc(N)c(-n2cncn2)n1 [Example 127.40] | 2.15 |

[Q] Quick check: log10(IC50) of Cc1ccc(S(=O)(=O)NCC(C)(C)O)cc1-c1cnc(N)c(-c2ccoc2)n1 [Example 39] ?
[A] 1.83

[Q] Moving on to Cc1ccc(S(=O)(=O)N[C@@H]2CCOC2)cc1-c1cnc(N)c(-n2cncn2)n1 [Example 127.20]
[A] 2.11

[Q] Moving on to Cc1ccc(S(=O)(=O)NCCC(C)(C)O)cc1-c1cnc(N)c(-c2cccs2)n1 [Example 119.45]
[A] 1.08

[Q] Moving on to Cc1ccc(S(=O)(=O)NC[C@H]2CCCN2)cc1-c1cnc(N)c(-c2cn(C)nc2C)n1 [Example 106, hydrochloride]
[A] 1.40

[Q] Moving on to Cc1ccc(S(=O)(=O)NCCC(C)(C)O)cc1-c1cnc(N)c(-c2ccnc(F)c2)n1 [Example 119.10]
[A] 1.48

[Q] Moving on to Cc1cc(-c2nc(-c3cc(S(=O)(=O)N[C@H]4CC[C@H](N)CC4)ccc3C)cnc2N)ccn1 [Example 129.43]
[A] 3.00

[Q] Moving on to Cc1cc(-c2nc(-c3cc(S(=O)(=O)NC[C@H]4CCCO4)ccc3C)cnc2N)ccn1 [Example 129.12]
[A] 1.76

[Q] Moving on to Cc1ccc(S(=O)(=O)NC2CC(F)(F)C2)cc1-c1cnc(N)c(-n2cncn2)n1 [Example 127.7]
[A] 1.60

[Q] Moving on to Cc1ncc(-c2nc(-c3cc(S(=O)(=O)NC[C@H]4CCCO4)ccc3C)cnc2N)s1 (single isomer, unassigned) [Example 45.6b]
[A] 1.62

[Q] Moving on to Cc1ccc(S(=O)(=O)N[C@H]2CC[C@H](O)CC2)cc1-c1cnc(N)c(-n2cccn2)n1 [Example 103]
[A] 1.11

[Q] Moving on to Cc1ccc(S(=O)(=O)NCC(C)(C)CO)cc1-c1cnc(N)c(-c2cc(C3CC3)no2)n1 [Example 99]
[A] 1.15

[Q] Moving on to Cc1ncc(-c2nc(-c3cc(S(=O)(=O)NCCC(C)(C)O)ccc3C)cnc2N)o1 [Example 119.40]
[A] 1.36
